# TEST_PROTOCOL: Half-life in human liver microsomes at 1 uM preincubated for 10 mins and measured up to 60 mins by LC-MS/MS analysis
# Type: ADME, Microsome
Recorded half-life at 1 µM by entry
Please respond with the number in min and leave the unit unwritten.

Worked cases, answers included:
• Cc1c(CCSCCO)cc(-c2ccc(S(C)(=O)=O)cc2)n1-c1ccc(F)cc1 = 36.2
• Cc1c(CC[S+]([O-])CCO)cc(-c2ccc(S(C)(=O)=O)cc2)n1-c1ccc(F)cc1 (stereo not given) = 470
• Cc1c(CCSCCO[N+](=O)[O-])cc(-c2ccc(S(C)(=O)=O)cc2)n1-c1ccc(F)cc1 = 10.5
• Cc1c(CC[S+]([O-])CCO[N+](=O)[O-])cc(-c2ccc(S(C)(=O)=O)cc2)n1-c1ccc(F)cc1 (stereo not given) = 34.7

Kindly consider the entry below.
Recorded half-life at 1 µM for CCOc1ccc2ccc(=O)oc2c1 , please?
12.6

* * *

# Tested on: Mus musculus
# TEST_PROTOCOL: Analgesic activity against acetic acid-induced male CD1 albino mouse model assessed as number of writhes at 10 mg/kg, po measured after 30 mins by abdominal constriction test
# Assay type: functional
# CONDITIONS_USED: 0.5 h
EXPERIMENTAL_ENDPOINT: Activity
Simply state the number, no unit and no words.

• Cc1c(CC[S+]([O-])CCO[N+](=O)[O-])cc(-c2ccc(S(C)(=O)=O)cc2)n1-c1ccc(F)cc1 (stereo unspecified) = 29.2
• Cc1c(CCSCCO[N+](=O)[O-])cc(-c2ccc(S(C)(=O)=O)cc2)n1-c1ccc(F)c(F)c1 = 22.5
• Cc1c(CCSCCO)cc(-c2ccc(S(C)(=O)=O)cc2)n1-c1ccc(F)cc1 = 26.5
• Cc1c(CC[S+]([O-])CCO[N+](=O)[O-])cc(-c2ccc(S(C)(=O)=O)cc2)n1-c1ccc(F)c(F)c1 (stereo unspecified) = 25.9
• Cc1c(CCSCCO[N+](=O)[O-])cc(-c2ccc(S(C)(=O)=O)cc2)n1-c1ccc(F)cc1 = 24.2

Kindly consider the entry below.
Recorded Activity for Cc1c(CCSCCO)cc(-c2ccc(S(C)(=O)=O)cc2)n1-c1ccc(F)c(F)c1 , please?
23.8

* * *

# Test system: Rattus norvegicus
# TEST_PROTOCOL: Anti-hyperalgesic activity in carrageenan-induced hyperalgesia male Sprague-Dawley rat model assessed as paw withdrawal threshold at 20 mg/kg, po measured 60 mins after compound administration by paw pressure test
# Type: functional
# CONDITIONS_USED: 1 h
EXPERIMENTAL_ENDPOINT: Activity

Worked cases, answers included:
- Cc1c(CCSCCO[N+](=O)[O-])cc(-c2ccc(S(C)(=O)=O)cc2)n1-c1ccc(F)c(F)c1: 37.1 g
- Cc1c(CC[S+]([O-])CCO[N+](=O)[O-])cc(-c2ccc(S(C)(=O)=O)cc2)n1-c1ccc(F)c(F)c1 (stereo unspecified): 38.3 g
- Cc1c(CCSCCO)cc(-c2ccc(S(C)(=O)=O)cc2)n1-c1ccc(F)cc1: 38.2 g

Find the measured Activity: item Cc1c(CCSCCO[N+](=O)[O-])cc(-c2ccc(S(C)(=O)=O)cc2)n1-c1ccc(F)cc1 , target or system Rattus norvegicus.
37.5 g

Find the measured Activity: item Cc1c(CCSCCO)cc(-c2ccc(S(C)(=O)=O)cc2)n1-c1ccc(F)c(F)c1 , target or system Rattus norvegicus.
39.6 g

Find the measured Activity: item Cc1c(CC[S+]([O-])CCO[N+](=O)[O-])cc(-c2ccc(S(C)(=O)=O)cc2)n1-c1ccc(F)cc1 (stereo unspecified) , target or system Rattus norvegicus.
36.3 g
